# test: qHTS assay for small molecule antagonists of retinoid X receptor alpha signaling (AID 588546);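 note: cells stimulated with 9-cis-retinoic acid as agonist; % is set by controls: 0 for no effect and ±100 for the full control effect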
# run-conditions: HEK293T RXRa-UAS-bla, beta-lactamase ratio, antagonist mode; measured here: W530 green channel, cytotoxicity proxy
Records with an inconclusive call do not appear.
Reported max response values for the following compounds.

# smiles-structure, max response [%]
data = [
    ("Cc1c2ccccc2c(C)c2c1ccc1ccccc12", -10.9),
    ("Cc1cc(-c2ccc(N=Nc3cc(S(=O)(=O)O)c4ccccc4c3N)c(C)c2)ccc1N=Nc1cc(S(=O)(=O)O)c2ccccc2c1N", -6.21),
    ("CCCCNCC", -20.9),
    ("Cc1c(C(=O)O)c(O)cc2c1C(=O)c1c(O)c([C@H]3O[C@H](CO)[C@@H](O)[C@H](O)[C@H]3O)c(O)c(O)c1C2=O", -15.8),
    ("c1ccc(Nc2cccc3ccccc23)cc1", 1.85),
    ("CCOc1ccc2nc(N)sc2c1", -8.45),
    ("COc1ccc(C(=O)Nc2ccccc2)cc1[N+](=O)[O-]", -10.5),
    ("O=C1OC(=O)c2ccccc21", 4.94),
    ("C/C(Cl)=C/CCl", -2.04),
    ("Cc1cccnc1", -1.12),
]

----------
# test: qHTS assay for small molecule antagonists of the retinoid-related orphan receptor gamma (ROR-gamma) signaling pathway - cell viability counter screen (AID 720652);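 note: CHO reporter cells with doxycycline-induced ROR-gamma expression; compound exposure lasted 16 hr before ATP read; % is set by controls: 0 for no effect and ±100 for the full control effect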
# run-conditions: RORgamma reporter cell line viability counter screen; series mostly up to 92.2 µM
Records with an inconclusive call do not appear. Activity calls are given as the source filed them. The call rests on the fitted dose curve; in most records, active means well fitted cell-killing curve with a large enough effect in the repeat runs; inconclusive means weak or mixed curves, or effect the other way; inactive means flat fitted curve, though single readings scatter.

# compound, outcome
measured = [
    ("c1ccc(SCCSc2ccccc2)cc1", "inactive"),
    ("CC(C)S", "inactive"),
    ("C=CC1CO1 (centres undefined)", "inactive"),
    ("CCCC(=O)OC(=O)CCC", "inactive"),
]

----------
# test: Cell Viability - LYMP1-002 - Assay at 24 hr (AID 993); note: % is set by controls: 0 for no effect and ±100 for the full control effect
# run-conditions: LYMP1-002 lymphoblastoid cells viability; series mostly up to 92.2 µM
Activity calls are given as the source filed them. Calls follow the shape of the dose curve; as a rule, active = well fitted cell-killing curve with a large enough effect; inconclusive = small, poorly fitted or top-dose-only effect; inactive = flat fitted curve, though single readings scatter.

# compound, outcome
measured = [
    ("Nc1ccc(N)c(Cl)c1", "inactive"),
    ("O=[N+]([O-])c1cccc(I)c1", "inactive"),
    ("CCCCCCCCOc1ccc(C(=O)O)cc1", "inactive"),
    ("Cc1ccc2ccc3cccc4ccc1c2c34", "inactive"),
    ("O=C(Cl)c1ccc([N+](=O)[O-])cc1", "inactive"),
    ("Cc1ccc(N)cc1[N+](=O)[O-]", "inactive"),
    ("C=CC(=O)CC", "inactive"),
    ("CCCCCCCC/C=C\\CCCCCCCC(=O)N(CCO)CCO", "inactive"),
    ("CCCCCCN", "inactive"),
    ("O=C(O)c1ccc([N+](=O)[O-])cc1", "inactive"),
    ("Nc1ccc(-c2ccc(N)c(O)c2)cc1O", "inactive"),
    ("Nc1cc(C(=O)O)c(O)c(S(=O)(=O)O)c1", "inactive"),
    ("CCCC(=O)OC(=O)CCC", "inactive"),
    ("OCC(CBr)(CBr)CBr", "inactive"),
    ("CCCCCCCCC1CO1 (stereo not drawn)", "inactive"),
    ("Nc1ccc(N=Nc2ccccc2)c(N)c1", "inactive"),
    ("O=C=Nc1ccc(Cl)c(Cl)c1", "inactive"),
    ("O=C1OC(=O)c2ccccc21", "inactive"),
]

----------
# test: Stat Signaling Pathway (AID 446);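 note: ME-180 cervical cancer cells given 40 pM IL-6 alongside compound; SIE-controlled beta-lactamase reporter measured as 460/530 nm FRET emission ratio; % is set by controls: 0 for no effect and ±100 for the full control effect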
# run-conditions: ME-180 SIE beta-lactamase reporter, IL-6 stimulated, 5 h; at 7.69 µM (top of the series) unless noted
Inconclusive results are not listed. Active and inactive are the calls of the source. Calls follow the shape of the dose curve; as a rule, active = well fitted curve in either direction with a large enough effect (not every such curve was filed as active); inconclusive = small, poorly fitted or top-dose-only effect, or another doubt; inactive = flat fitted curve, though single readings scatter.

# smiles-structure, activity, negative = inhibition
data = [
    ("CN[C@@H](CC(C)C)C(=O)N[C@@H]1C(=O)N[C@H](CC(N)=O)C(=O)N[C@H]2C(=O)N[C@H]3C(=O)N[C@H](C(=O)N[C@H](C(=O)O)c4cc(O)cc(O)c4-c4cc3ccc4O)[C@H](O)c3ccc(c(Cl)c3)Oc3cc2cc(c3O[C@@H]2O[C@@H](CO)[C@@H](O)[C@@H](O)[C@H]2O[C@H]2C[C@](C)(N)[C@H](O)[C@H](C)O2)Oc2ccc(cc2Cl)[C@@H]1O", "4.5% [at 38 µM] (inactive)"),
    ("O=C(O)/C(Cc1cn[nH]n1)=N\\O", "1.63% (inactive)"),
    ("O=S(=O)(O)c1cc(O)c2c(N=Cc3ccccc3O)cc(S(=O)(=O)O)cc2c1", "-1.77% (inactive)"),
    ("COc1c(O)ccc2c1CN1CCc3cc4c(cc3[C@@H]1C2)OCO4", "7.58% (inactive)"),
    ("O=CN1CCN(C[C@H](O)CN2CCCCC2)CC1", "8.12% (inactive)"),
    ("O=C(O)CCCC[C@H]1CCSS1", "-7.28% [at 38 µM] (inactive)"),
    ("O=C1c2ccccc2-c2ccc(N(Cc3ccc(Br)cc3)Cc3ccc(Br)cc3)cc21", "4.89% (inactive)"),
    ("COc1ccc(-c2csc3c2[N+]2=CCC=C2C3=O)cc1", "-14.9% (inactive)"),
    ("O=C1c2ccccc2-c2ccc(N=[N+]([O-])c3ccc4c(c3)C(=O)c3ccccc3-4)cc21", "7.21% (inactive)"),
    ("O=C(O)Cn1ccnc1[N+](=O)[O-]", "6.87% (inactive)"),
    ("COC(=O)CC[C@@H](C)[C@@H]1CC[C@@H]2[C@@H]3CC[C@H]4C[C@@H](O)CC[C@@]4(C)[C@@H]3CC[C@]21C", "23.8% (inactive)"),
    ("COc1cc2c(cc1OC)C(CCN)=NCC2", "8.17% (inactive)"),
    ("O=C(O)C(=Cc1ccnc2ccccc12)C(=O)O", "9.09% (inactive)"),
    ("CC(C)C(O)(C(C)C)C(C)C", "13.2% (inactive)"),
    ("O=C1OC2(c3ccc(O)cc3Oc3cc(O)ccc32)c2c1c(-c1ccccc1)c(-c1ccccc1)c(-c1ccccc1)c2-c1ccccc1", "-17.7% (inactive)"),
    ("COc1ccc(CNc2nc(-c3ccccc3OC)nc3ccccc23)c(OC)c1", "16.1% (inactive)"),
    ("CC(=O)CC(=O)Nc1ccc2ccccc2c1", "6.17% (inactive)"),
    ("C[C@H](CCC(=O)O)[C@H]1CC[C@]2(C)[C@@H]3C(=O)C[C@H]4C(C)(C)[C@@H](O)CC[C@]4(C)[C@H]3C(=O)C[C@@]12C", "8.37% (inactive)"),
    ("NC(=O)c1ncn([C@@H]2O[C@@H](CO)[C@@H](O)[C@H]2O)n1", "-14.5% [at 38 µM] (inactive)"),
    ("CC1(C)N=C(N)N=C(N)N1CCCCc1ccccc1", "0.495% (inactive)"),
    ("O=C1C(=O)c2ccccc2C(O)=C1C(CCc1ccccc1)C1=C(O)c2ccccc2C(=O)C1=O", "-1.13% (inactive)"),
    ("CN(C)CC(CN(C)C)c1ccccn1", "1.27% (inactive)"),
    ("C[C@@](O)(CNS(=O)(=O)c1ccccc1)c1ccccc1", "-0.864% (inactive)"),
    ("NC(=S)NCCC[C@@H](N)C(=O)O", "-8.44% [at 38 µM] (inactive)"),
    ("c1ccc([P+](CC[P+](c2ccccc2)(c2ccccc2)c2ccccc2)(c2ccccc2)c2ccccc2)cc1", "7.49% (inactive)"),
    ("CN(C)CCCCN1CCc2c(n(C)c3ccccc23)C1=O", "3.15% (inactive)"),
    ("Nc1nc2c(ncn2[C@@H]2C=C[C@@H](CO)C2)c(=O)[nH]1", "5.37% (inactive)"),
    ("N=c1ccn2c(n1)O[C@@H]1[C@@H](O)[C@H](CO)O[C@H]12", "0.604% [at 38 µM] (inactive)"),
]

----------
Reported activity change, negative = inhibition values for the following compounds.
# test: AP1 Signaling Pathway (AID 357)
# run-conditions: ME-180 (cervical carcinoma) AP-1-bla reporter, EGF-induced, beta-lactamase ratio, 5 h; at 7.69 µM (top of the series) unless noted
Inconclusive results are not listed.
assay-metric: activity change, negative = inhibition (%)

# smiles-structure, readout-value
records = [
    ("CC1=C[N+](=O)c2ccccc2[N+]1=O", 5.1),
    ("NS(=O)(=O)c1ccc(N=Nc2c(O)c(C(=O)O)cc3ccccc23)cc1", 1.12),
    ("CC(C)=N[C@H](C(=O)O)C(C)(C)S", 10),
    ("N#CCCn1c(=O)c(-c2cccc(C#N)c2)nc2cnc(Oc3ccccc3)nc21", -17.5),
]

----------
# assayed-target: Cytochrome P450 1A2 (Homo sapiens) (UniProt P05177)
# Sequence (P05177 whole entry, looked up): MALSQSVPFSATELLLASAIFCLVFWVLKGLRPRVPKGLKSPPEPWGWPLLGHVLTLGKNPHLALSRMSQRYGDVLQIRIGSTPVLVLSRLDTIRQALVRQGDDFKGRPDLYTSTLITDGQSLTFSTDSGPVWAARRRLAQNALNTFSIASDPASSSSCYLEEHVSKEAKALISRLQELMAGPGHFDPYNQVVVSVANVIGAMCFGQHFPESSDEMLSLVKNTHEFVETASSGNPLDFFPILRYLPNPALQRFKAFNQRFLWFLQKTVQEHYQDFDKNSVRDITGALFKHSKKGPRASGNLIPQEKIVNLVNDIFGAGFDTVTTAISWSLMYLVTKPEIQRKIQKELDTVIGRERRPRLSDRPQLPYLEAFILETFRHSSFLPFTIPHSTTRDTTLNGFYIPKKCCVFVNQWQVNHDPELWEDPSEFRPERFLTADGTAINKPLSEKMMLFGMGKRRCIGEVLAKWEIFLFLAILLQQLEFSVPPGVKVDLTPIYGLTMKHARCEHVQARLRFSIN
# test: p450-cyp1a2 (AID 410)
# run-conditions: recombinant CYP1A2, luciferin-ME demethylation, luminescence; series mostly up to 11.4 µM
Records with an inconclusive call do not appear. Activity calls are given as the source filed them. The call rests on the fitted dose curve.
Labels: active, inactive

# smiles-structure, assayed-target, assigned-class
records = [
    ("O=C(O)CNC(=O)c1ccccc1O", "Cytochrome P450 1A2 (Homo sapiens) (UniProt P05177)", "active"),
    ("CN1CCc2c(cc(O)c(O)c2Cl)[C@H](c2cccc(Cl)c2)C1", "Cytochrome P450 1A2 (Homo sapiens) (UniProt P05177)", "inactive"),
    ("CC(C)(CO[C@H]1C[C@H]2CC[C@@]1(C)C2(C)C)[N+](=O)[O-]", "Cytochrome P450 1A2 (Homo sapiens) (UniProt P05177)", "inactive"),
]
